B1: wt-peptide PTTIYY (non-biotinylated hexapeptide) / His-AGR2 WT (mature AGR2, amino acids 21-175, N-terminal 6xHis tag; plasmid pmAGR2) [human] (parent complex)
chain 1: PTTIYY
chain 2: RDTTVKPGAKKDTKDSRPKLPQTLSRGWGDQLIWTQTYEEALYKSKTSSKPLMIIHHLDECPHSQALKKVFAENKEIQKLAEQFVLLNLVYETTDKHLSPDGQYVPRIMFVDPSLTVRADITGRYSNRLYAYEPADTALLLDNMKKALKLLKTEL

variants of: B1; assay: competition ELISA (AGR2 binding to immobilised biotinylated peptide A4 with free competitor peptide); 1 μg AGR2; 100 ng competitor peptide; RLU is AGR2 bound to peptide A4, so lower RLU = stronger competitor binding; DMSO (no competitor) est. 79; read off a plot
readout: response

Below, 10 variants whose answers are already recorded.
- mutationSpec: "chain 1 P1I"
  result: "~7.5 RLU"
- mutationSpec: "chain 1 Y6A"
  result: "~60 RLU"
- mutationSpec: "chain 1 T2A"
  result: "~84 RLU"
- mutationSpec: "chain 1 I4V"
  result: "~55 RLU"
- mutationSpec: "chain 1 T3A"
  result: "~6 RLU"
- mutationSpec: "chain 1 I4M"
  result: "~80 RLU"
- mutationSpec: "chain 1 P1V"
  result: "~11 RLU"
- mutationSpec: "chain 1 T3I"
  result: "~75 RLU"
- mutationSpec: "chain 1 T2C"
  result: "~80 RLU"
- mutationSpec: "chain 1 P1W"
  result: "~9 RLU"

Please report the recorded response for chain 1 T3M . ~8 RLU

// same read-out, input: chain 1 P1G ~7.5 RLU

// same read-out, input: chain 1 P1M ~17 RLU

// same read-out, input: chain 1 T3G ~12 RLU

// same read-out, input: chain 1 P1F ~6 RLU

// same read-out, input: chain 1 T2S ~83 RLU
